For each record, write down the corresponding TGI.
- System: HL-60(TB) leukemia
- method.summary: NCI tumour cell line growth inhibition, 48 h
Numbers only, in µM.

Worked examples, 3 compounds total:
c1cnc2[nH]cc(-c3csc(-c4cn(CCCN5CCCCC5)c5ccccc45)n3)c2c1
3.74
O=C1OI(C#Cc2ccccc2)c2ccccc21
7.82
CC(c1ccccc1)N1CC(C)(c2ccccc2)N(O)C(c2ccccc2)C1C (centres undefined)
13.5

Continue with the next compound.
Requested read-out TGI, target or system HL-60(TB) leukemia, entry CCCCCCOc1ccc(C(=N)N(CCCC)CCCC)c2ccccc12 3.43

###

- Test system: SW-620 colon
- method.summary: NCI tumour cell line growth inhibition, 48 h
reported.property: TGI

# annotated cases, reported TGI shown
NC(=S)N/N=C\CC(O)(C(F)(F)F)C(F)(F)F
> 10 µM
CC/C(Cl)=N\OC(=O)Nc1ccc(F)cc1F
2.95 µM
COc1ccc2cc(-c3c(-c4ccncc4)nc(-c4ccc(S(C)=O)cc4C)n3C)ccc2c1 (stereo unspecified)
> 25 µM

Hey, quick one: what's TGI for each of these?
1. CC(C)(C)OC(=O)N1CCc2c(n(C/C=C/c3ccccc3)[nH]c2=O)C1
2. CCCCCCCCCCCCCCCCOCC(Cl)COP(=O)(O)OP(=O)(O)OCC1OC(n2cnc3c(N)ncnc32)C(O)C1O (stereo unspecified)
3. C[C@@]12CCCC(=O)N1[C@@H](CO)C(c1ccccc1)O2 (stereo partly specified)

1. > 100 µM
2. > 100 µM
3. > 100 µM

###

- Test system: MOLT-4 leukemia
- method.summary: NCI tumour cell line growth inhibition, 48 h
Kindly state TGI for each of the entries shown.

Known TGI results, listed for orientation:
COc1ccccc1/C=C\C(=O)c1ccccc1
10.2 µM
CCCn1cnc2c(SCc3ccccc3)nc(N)nc21
> 100 µM
COc1ccc(/C=C/C(=O)C(C)(C)Br)cc1
18.9 µM

For every item in the list below, what is its measured TGI?
1. Cc1c2cccc-2ccc2c1[nH]c1ccccc12
2. COC(=O)C(NC(=O)CSc1nnc(COc2ccc(Cl)cc2)n1-c1ccccc1)C(C)C (configuration not stated)
3. COc1ccc2cc(-c3c(-c4ccncc4)nc(-c4ccc(S(C)=O)cc4C)n3C)ccc2c1 (configuration not stated)
4. Cn1cnc([N+](=O)[O-])c1Sc1nc(N)nc2nc[nH]c12
5. O=C(Nc1cc(S(=O)(=O)c2ccc(Cl)cc2)ccc1Cl)c1cc(I)cc(I)c1O
6. C[N+](C)=c1nc(N2CCOCC2)ss1

["28.2 µM", "> 100 µM", "> 25 µM", "> 100 µM", "41 µM", "> 100 µM"]

Please supply TGI for each of the following items, keeping them in order.
1. O=c1[nH]c2cc(Cl)c(Cl)cc2n2cc3ccccc3c12
2. CC(=O)NC1=C(NCC(C)C)C(=O)c2ccccc2C1=O
3. Cn1cc(CO)c2ccccc21
4. CC(c1ccccc1)N1CC(C)(c2ccccc2)N(O)C(c2ccccc2)C1C (configuration not stated)
5. COc1ccc(C(=O)c2ccc(-n3cc(/C=C/[N+](=O)[O-])c4ccccc43)cc2)cc1
6. CC(C)(C)c1ccc(-c2nnc(-c3cc(C#N)cc(-c4nnc(-c5ccc(C(C)(C)C)cc5)o4)c3)o2)cc1

1: 36.7 µM; 2: > 100 µM; 3: > 100 µM; 4: 29.8 µM; 5: > 100 µM; 6: > 100 µM

Hello, I would appreciate it if you could give TGI for each entry below.
1. O=C(/C=C/c1ccco1)c1cccc(C(=O)/C=C/c2ccco2)n1
2. CC(C)(C)c1c(C(C)(C)C)c(=O)c1=O
3. Nc1ccn([C@@H]2C(F)=C(CO)[C@@H](O)[C@H]2O)c(=O)n1
4. O=[N+]([O-])C1C2C=CC(C2)[C@H]1c1ccc(Cl)cc1Cl (some centres not stated)
5. COc1ccc(C2=C(OC(=O)N(C)C)c3cccn3-c3cc(Cl)ccc3S2)cc1
6. Cc1cc(S(=O)(=O)O)c(NC(=O)c2oc3cc(O)ccc3c(=O)c2C)cc1Cl
7. CCCCCCCCCCCCCCCCOCC(Cl)COP(=O)(O)OP(=O)(O)OCC1OC(n2cnc3c(N)ncnc32)C(O)C1O (configuration not stated)
8. O=C(Nc1ccc(Cl)cc1)Nc1ccccc1CNc1nc(Nc2ccc(OCCN3CCCC3)cc2)ncc1Cl

["6.25 µM", "> 100 µM", "> 100 µM", "> 100 µM", "> 10 µM", "> 100 µM", "> 100 µM", "2.99 µM"]

###

- Tested on: OVCAR-4 ovarian
- method.summary: NCI tumour cell line growth inhibition, 48 h
Task for the reader: assign each of the following compounds its reported GI50.

CN(C)C(=O)SC1=C(c2c(Cl)cccc2Cl)C(=O)c2ccccc21
4240 nM
COc1ccc(-c2cc(/C=C/C(=O)c3cc(OC)c(OC)c(OC)c3)[nH]n2)cc1OC
1620 nM
COc1ccc2c(c1)nc1n2C(c2ccc(F)cc2)SC1 (stereo not given)
33800 nM

The following compounds each have a reported value; give each one's GI50.
1. Oc1[nH]c2ccccc2c1/C=c1/cc2c(c(-c3ccc(C(F)(F)F)cc3)n1)=Nc1ccccc1-2
2. O=c1oc2ccc(F)cc2c(=O)n1-c1ccc(Br)cc1F

1: 2750 nM; 2: 1270 nM

###

- Test system: TK-10 renal
- method.summary: NCI tumour cell line growth inhibition, 48 h; in the data active = GI50 below about 0.43 µM; inactive = the rest
Choose the fitting class; nothing outside active, inactive is accepted.

CC[C@H](C)[C@H](NC(=O)[C@H]1CCCCN1C)C(=O)N(C)[C@H](C[C@@H](OC(C)=O)c1nc(C(=O)N[C@@H](Cc2ccccc2)C[C@H](C)C(=O)OC)cs1)C(C)C
active

Now turn to the next molecule.
Could you kindly confirm the outcome this assay logged for CC1(C)C2CCC13C(=O)C1OC3(C2)C2C(=O)c3c(O)cccc3C(=O)C12 (stereo not given) ? inactive

###

- Tested on: SNB-19 CNS
- method.summary: NCI tumour cell line growth inhibition, 48 h
reported.property: TGI (µM)
Answers are plain numbers, in µM.

Illustrative cases are given below, each with its answer.
COc1ccc(-c2cc(/C=C/C(=O)c3cc(OC)c(OC)c(OC)c3)[nH]n2)cc1OC
5.32
COc1cc(-n2cc(-c3cc(O)c(C/C=C(\C)CCC=C(C)C)c(O)c3)nn2)cc2c1O[C@]1(C)CC[C@@H](O)C(C)(C)[C@H]1C2
40.3

# input for lookup
May I ask what TGI has been recorded for O=C(Nc1cc(S(=O)(=O)c2ccc(Cl)cc2)ccc1Cl)c1cc(I)cc(I)c1O ? 29.3

###

- Tested on: SNB-19 CNS
- method.summary: NCI tumour cell line growth inhibition, 48 h
reported.property: TGI

COc1ccc(/C=C/C(=O)C(C)(C)Br)cc1
88.7 µM
COC(=O)[C@H](Cc1ccccc1)NC(=O)c1csc([C@@H](C[C@H](C(C)C)N(C)C(=O)[C@@H](NC(=O)[C@H]2CCCN2C)C2CC2)OC(C)=O)n1
> 33.3 µM
O=S(=O)(O)C1CCC(O)C2[N-]CCCC21.O=S(=O)(O)C1CCC(O)C2[N-]CCCC21.[Zn+2] (stereo not given)
> 100 µM
COc1ccc(CC2=NCCc3cc(OC)c(OC)cc32)cc1Br
> 100 µM

Record request: TGI value, item O=C1CC2(CCNCC2)C(=O)N1N1CCOCC1 > 100 µM

###

- Test system: PC-3 prostate
- method.summary: NCI tumour cell line growth inhibition, 48 h
reported.property: TGI (µM)
One number for each entry, in µM.

Consider the following illustrative entries.
C=C[C@@](C)(/C=C/c1ccc(O)cc1)CCC=C(C)C
30.4
COc1ccc(/C=C/C(=O)C(C)(C)Br)cc1
36.9
COc1ccc(-c2cc(/C=C/C(=O)c3cc(OC)c(OC)c(OC)c3)[nH]n2)cc1OC
10.3
O=[N+]([O-])/C=C/c1cn(CCCCCn2cc(/C=C/[N+](=O)[O-])c3ccccc32)c2ccccc12
15

Please look at the items below and tell me TGI for each one, in order.
1. COc1ccc(C(=O)c2ccc(-n3cc(/C=C/[N+](=O)[O-])c4ccccc43)cc2)cc1
2. CCCNC(=O)CCC(C)[C@H]1CCC2C3C(C[C@H](OC(C)=O)[C@@]21C)[C@@]1(C)CCC2(C[C@H]1C[C@H]3OC(C)=O)OOC1(CCCCC1)OO2 (some centres undefined)

49.9
7.08

###

Kindly supply the reported TGI values for the records listed here.
- Tested on: HS 578T breast
- method.summary: NCI tumour cell line growth inhibition, 48 h
Give bare numbers, in µM.

Worked set:
C=CC(=O)Nc1cccc(Nc2nc(Nc3ccc(OCCOC(F)F)cc3)ncc2F)c1
8.77
COC(=O)/C=C/c1ccc2c(c1)CC1(Cc3ccccc3C1)C2
80.4
O=C(Nc1cc(S(=O)(=O)c2ccc(Cl)cc2)ccc1Cl)c1cc(I)cc(I)c1O
47.6
OC(c1cc(-c2ccccc2)nc2c1ccc1ccccc12)C1CCCCN1 (stereo unspecified)
3.53
O=C(CCN1CCCC1)Nc1ccc2c(Nc3ccccc3)c3ccccc3nc2c1
3.28

# per-item lookup of TGI; items listed below
1. O=c1oc2ccc(F)cc2c(=O)n1-c1ccc(Br)cc1F
2. O=[N+]([O-])/C=C/c1cn(CCCCCn2cc(/C=C/[N+](=O)[O-])c3ccccc32)c2ccccc12
3. Nc1ncnc2c1c(-c1ccc(Oc3ccccc3)cc1)nn2C[C@@H]1SSC[C@@H]1O
4. C=C[C@@](C)(/C=C/c1ccc(O)cc1)CCC=C(C)C

1. 7.87
2. 7.99
3. 11.6
4. 46.9

State the recorded TGI for this entry: COc1cc2cc(C(=O)N3CC(CCl)c4c3cc([N+](C)(C)Cc3ccc([N+](=O)[O-])n3C)c3ccccc43)[nH]c2c(OC)c1OC (stereo unspecified) 38.2
